Target: NLRP3 (Homo sapiens, UniProt Q96P20)
Sequence (Q96P20 whole entry): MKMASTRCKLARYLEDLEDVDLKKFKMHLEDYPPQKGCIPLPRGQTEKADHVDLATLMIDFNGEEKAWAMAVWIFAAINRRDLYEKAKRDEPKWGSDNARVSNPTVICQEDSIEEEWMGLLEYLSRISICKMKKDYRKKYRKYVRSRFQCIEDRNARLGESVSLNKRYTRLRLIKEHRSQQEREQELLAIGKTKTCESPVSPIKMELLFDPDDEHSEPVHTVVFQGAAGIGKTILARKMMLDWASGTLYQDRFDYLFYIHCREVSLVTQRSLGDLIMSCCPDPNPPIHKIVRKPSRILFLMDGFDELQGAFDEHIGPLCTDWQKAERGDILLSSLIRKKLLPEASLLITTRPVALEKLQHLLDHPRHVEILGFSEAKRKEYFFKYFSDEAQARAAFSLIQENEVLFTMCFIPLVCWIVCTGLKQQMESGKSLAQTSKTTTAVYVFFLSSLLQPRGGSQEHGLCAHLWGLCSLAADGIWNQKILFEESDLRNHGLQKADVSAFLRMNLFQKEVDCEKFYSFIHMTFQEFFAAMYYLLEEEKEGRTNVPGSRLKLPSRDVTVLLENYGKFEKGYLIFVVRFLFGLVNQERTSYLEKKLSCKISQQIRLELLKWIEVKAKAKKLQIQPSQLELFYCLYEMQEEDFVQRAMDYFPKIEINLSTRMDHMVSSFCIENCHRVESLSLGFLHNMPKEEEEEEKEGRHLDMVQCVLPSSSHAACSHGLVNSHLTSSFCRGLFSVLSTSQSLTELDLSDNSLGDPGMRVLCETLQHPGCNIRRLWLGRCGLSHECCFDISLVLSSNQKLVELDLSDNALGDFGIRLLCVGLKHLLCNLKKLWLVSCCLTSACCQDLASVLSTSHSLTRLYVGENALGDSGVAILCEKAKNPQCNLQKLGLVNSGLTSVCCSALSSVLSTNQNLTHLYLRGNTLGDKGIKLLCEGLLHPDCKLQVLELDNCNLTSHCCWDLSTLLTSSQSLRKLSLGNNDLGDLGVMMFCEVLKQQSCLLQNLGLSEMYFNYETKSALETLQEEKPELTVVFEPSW
Assay: THP-1 cells pyroptosis assay
Assay type: cell-based
Set-up: Seed THP-1 cells (25,000 cells/well) containing 1.0 μg/ml LPS; host or cells: THP-1 cells, LPS-primed, nigericin-stimulated
Conditions: 1.0 μg/ml LPS, nigericin 5 μM, resazurin readout
Method: The cells were routinely passaged and grown to confluency (˜10^6 cells/ml). On the day of the experiment, THP-1 cells were harvested and resuspended into RPMI medium (without FBS). […] To this diluted cell solution was added LPS (Sigma #L4524) to give a 1 μg/ml Final Assay Concentration (FAC). 40 μl of the final preparation was aliquoted into each well of a 96-well plate. The plate thus prepared was used for compound screening. […]

>  <compound>
Cn1c(-c2ccc(C(F)(F)F)cc2O)nnc(NC2CCCN3CCCC23)c1=O (centres unmarked)

>  <IC50 / nM>
51

$$$$
>  <compound>
CCCN1CCC[C@@H](Nc2nnc(-c3ccc(C(F)(F)F)cc3O)n(C)c2=O)C1

>  <IC50 / nM>
53

$$$$
>  <compound>
CCN1CCC[C@@H](Nc2nnc(-c3ccc(C(F)(F)F)cc3O)n(CC)c2=O)C1

>  <IC50 / nM>
94

$$$$
>  <compound>
CN1CC(Nc2nnc(-c3ccc(C(F)(F)F)cc3O)n(C)c2=O)CC(C)(C)C1 (centres unmarked)

>  <IC50 / nM>
868

$$$$
>  <compound>
CCN1CCC[C@@H](Nc2nnc(-c3ccc(C(F)(F)F)cc3O)[nH]c2=O)C1

>  <IC50 / nM>
459

$$$$

----------
target: UniProtKB Q96P20; assay: THP-1 cells pyroptosis assay; assay type: cell-based; set-up: Seed THP-1 cells (25,000 cells/well) containing 1.0 μg/ml LPS; host or cells: THP-1 cells, LPS-primed, nigericin-stimulated; conditions: 1.0 μg/ml LPS, nigericin 5 μM, resazurin readout
pIC50: −log10 of the molar value.

>  <compound>
CCN1CCC[C@@H](Nc2nnc(-c3ccc(C(C)=O)cc3O)n(C)c2=O)C1

>  <prefix operator>
=

>  <pIC50>
8.03

$$$$
>  <compound>
CCN1CCC[C@@H](Nc2nnc(-c3ccc(OC(F)(F)F)cc3O)n(C)c2=O)C1

>  <prefix operator>
=

>  <pIC50>
7.92

$$$$
>  <compound>
CCN1CCC[C@@H](Nc2nnc(-c3ccc(F)cc3O)n(C)c2=O)C1

>  <prefix operator>
=

>  <pIC50>
7.24

$$$$
>  <compound>
CN1CCC[C@@H](Nc2nnc(-c3ccc(C(F)(F)F)cc3O)n(C)c2=O)C1 [Example 26]

>  <prefix operator>
=

>  <pIC50>
7.99

$$$$
>  <compound>
CCN1CCC[C@@H](Nc2nnc(-c3c(C)cc(C(F)(F)F)cc3O)n(C)c2=O)C1 [Example 28]

>  <prefix operator>
=

>  <pIC50>
7.89

$$$$
>  <compound>
CN1CCC[C@@H](Nc2nnc(-c3ccc(C(F)(F)F)cc3O)n(C)c2=O)C1 [Example 6]

>  <prefix operator>
=

>  <pIC50>
7.62

$$$$
>  <compound>
CCN1CCC[C@@H](Nc2nnc(-c3ccc(S(F)(F)(F)(F)F)cc3O)n(C)c2=O)C1

>  <prefix operator>
=

>  <pIC50>
6.94

$$$$
>  <compound>
CCN1C[C@H](C)C[C@@H](Nc2nnc(-c3ccc(C(F)(F)F)cc3O)n(C)c2=O)C1

>  <prefix operator>
<

>  <pIC50>
6.00

$$$$
